- Procedure summary: BSK_LPS_SRB: Viability Assessment in the BioMAP Diversity Plus: LPS Assay (AID 2283079);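 further: total protein by sulforhodamine B absorbance as a cytotoxicity measure; measured one day after compound addition; fitted in both directions against DMSO so loss or gain of signal counts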
- Applied conditions: primary human HUVEC with PBMC
Activity calls are given as the source filed them. How the source made its calls: active means hit-call score of the fitted dose curve at least 0.9, where 1 is the maximum; inactive means score below 0.9.
Labels: active, inactive

Compound | Group label
CN(C)C(=S)SSC(=S)N(C)C | active
CCOC(=O)C(Cl)Cc1cc(-n2nc(C)n(C(F)F)c2=O)c(F)cc1Cl (stereo unspecified) | inactive
COc1nc(C)nc(NC(=O)NS(=O)(=O)c2ccccc2CCC(F)(F)F)n1 | inactive
CCCN(CCC)c1c([N+](=O)[O-])cc(S(N)(=O)=O)cc1[N+](=O)[O-] | active
C=CC1(C)OC(=O)N(c2cc(Cl)cc(Cl)c2)C1=O (stereo unspecified) | inactive
COc1cnc(OC)n2nc(NS(=O)(=O)c3c(OCC(F)F)cccc3C(F)(F)F)nc12 | inactive
N#Cc1nn(-c2c(Cl)cc(C(F)(F)F)cc2Cl)c(N)c1S(=O)C(F)(F)F (stereo unspecified) | active
O=C(Nc1ccccc1)Nc1ccnc(Cl)c1 | inactive
CNC(=S)S | active
C#CCOS(=O)OC1CCCCC1Oc1ccc(C(C)(C)C)cc1 (stereo unspecified) | active
O=C(O)c1nc(Cl)ccc1Cl | inactive
CCCC1COC(Cn2cncn2)(c2ccc(Cl)cc2Cl)O1 (stereo unspecified) | inactive
COC(=O)C=C(C)OP(=O)(OC)OC | inactive
CCCCNC(=O)OCC#CI | active
C=CCC1=C(C)[C@@H](OC(=O)[C@@H]2[C@@H](C=C(C)C)C2(C)C)CC1=O | active
N#Cc1cc(Br)c(O)c(Br)c1 | active

---

- Test target: chicken Estrogen Receptor (ESR1), ESR1 (gene 396099)
- Procedure summary: ATG_chERa_XSP1: Attagene TRANS-FACTORIAL Multi-Species (XSP1) HepG2 Assay for chicken Estrogen Receptor (ESR1) (AID 2283779)
Inconclusive results are not listed. Active and inactive are the calls of the source. The calls were made as follows: active = hit-call score of the fitted dose curve at least 0.9, where 1 is the maximum; inconclusive = response in the unintended direction; inactive = score below 0.9.
Metric name: AC50

Compound | Recorded value
CO/C=C(/C(=O)OC)c1ccccc1Oc1cc(Oc2ccccc2C#N)ncn1 | inactive
CON(C)C(=O)Nc1ccc(Cl)c(Cl)c1 | 27.3 µM (active)
C=CC1(C)OC(=O)N(c2cc(Cl)cc(Cl)c2)C1=O (stereo not given) | 59.9 µM (active)
COP(=S)(OC)Oc1nc(Cl)c(Cl)cc1Cl | 27.8 µM (active)
CCCCC(CC)COC(=O)c1ccccc1C(=O)OCC(CC)CCCC (stereo not given) | inactive
CCCN(CCC)c1c([N+](=O)[O-])cc(S(N)(=O)=O)cc1[N+](=O)[O-] | 16.2 µM (active)
CC(C)(C)c1ccc(CSc2cnn(C(C)(C)C)c(=O)c2Cl)cc1 | inactive
C#CCOS(=O)OC1CCCCC1Oc1ccc(C(C)(C)C)cc1 (stereo not given) | 26.8 µM (active)
OC(c1ccc(Cl)cc1)(c1cncnc1)c1ccccc1Cl (stereo not given) | 2.36 µM (active)
CCCCOC(=O)c1ccccc1C(=O)OCCCC | 26.7 µM (active)

---

- Procedure summary: CCTE_Mundy_HCI_hNP1_CellTiter: CCTE's Cell Titer-Glo 2 Assay in human neuroprogenitor cells for Viability, Mundy Lab (AID 2284241)
Results filed as inconclusive are left out. The source made the active and inactive calls. Rule for the calls: active = hit-call score of the fitted dose curve at least 0.9, where 1 is the maximum; inconclusive = response in the unintended direction; inactive = score below 0.9.
Classes used: label 1 for active, label 0 for inactive

Molecule | Group label
C=CC1(C)OC(=O)N(c2cc(Cl)cc(Cl)c2)C1=O (stereo unspecified) | label 0
COP(N)(=O)SC (stereo unspecified) | label 0
CCCCC(CC)COC(=O)c1ccccc1C(=O)OCC(CC)CCCC (stereo unspecified) | label 1
C=CCC1=C(C)[C@@H](OC(=O)[C@@H]2[C@@H](C=C(C)C)C2(C)C)CC1=O | label 1
CNC(=O)ON=CC(C)(C)SC | label 0
COP(=S)(OC)Oc1nc(Cl)c(Cl)cc1Cl | label 0
CCCCNC(=O)n1c(NC(=O)OC)nc2ccccc21 | label 1
CCOc1cc(Oc2ccc(C(F)(F)F)cc2Cl)ccc1[N+](=O)[O-] | label 1
COC(=O)N(OC)c1ccccc1COc1ccn(-c2ccc(Cl)cc2)n1 | label 1
CN(C)C(=S)SSC(=S)N(C)C | label 1
C=CCC1=C(C)C(OC(=O)C2C(C=C(C)C)C2(C)C)CC1=O (stereo unspecified) | label 0

---

- Procedure summary: CCTE_Mundy_HCI_Cortical_NOG_NeuriteCount: CCTE's Neurite Outgrowth Assay in rat cortical cells for Neurite Count, Mundy Lab (AID 2284212);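 further: cells fixed about two days after chemical exposure began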
Activity calls are given as the source filed them. The calls were made as follows: active = hit-call score of the fitted dose curve at least 0.9, where 1 is the maximum; inactive = score below 0.9.
Outcome codes: true = active, false = inactive

Compound | Group label
CNC(=O)ON=CC(C)(C)SC | false
CC(C)(C)c1ccc(CSc2cnn(C(C)(C)C)c(=O)c2Cl)cc1 | true
COP(=S)(OC)Oc1nc(Cl)c(Cl)cc1Cl | true
C=CCC1=C(C)[C@@H](OC(=O)[C@@H]2[C@@H](C=C(C)C)C2(C)C)CC1=O | false
COP(N)(=O)SC (centres undefined) | false
COC(=O)N(OC)c1ccccc1COc1ccn(-c2ccc(Cl)cc2)n1 | true
CCCCOC(=O)c1ccccc1C(=O)OCCCC | false
Cc1ccc(-c2c(Cl)nc(C#N)n2S(=O)(=O)N(C)C)cc1 | true
CN(C)C(=S)SSC(=S)N(C)C | true

---

- Test target: rat CYP2D1, Cyp2d1 (gene 266684)
- Procedure summary: NVS_ADME_rCYP2D1: NovaScreen (NVS) CYP450-related Enzyme Activity (ADME) Assay for rat CYP2D1 (AID 2283122)
Records with an inconclusive call do not appear. Active and inactive are the calls of the source. The calls were made as follows: active = hit-call score of the fitted dose curve at least 0.9, where 1 is the maximum; inconclusive = response in the unintended direction; inactive = score below 0.9.
Labels: active, inactive

Molecule | Group label
CCOP(=S)(OCC)SCn1c(=O)oc2cc(Cl)ccc21 | active
C=CCC1=C(C)[C@@H](OC(=O)[C@@H]2[C@@H](C=C(C)C)C2(C)C)CC1=O | active
COC(=O)N(OC)c1ccccc1COc1ccn(-c2ccc(Cl)cc2)n1 | inactive
O=C(Nc1ccccc1)Nc1ccnc(Cl)c1 | active
CCCC1COC(Cn2cncn2)(c2ccc(Cl)cc2Cl)O1 (stereo unspecified) | active
OC(c1ccc(Cl)cc1)(c1cncnc1)c1ccccc1Cl (stereo unspecified) | active

---

- Read-out: Alkaline Phosphatase, Placental (ALPP) gene, ALPP (gene 250)
- Procedure summary: LTEA_HepaRG_ALPP: Life Technologies and Expression Analysis (LTEA) Assay for Alkaline Phosphatase, Placental (ALPP) gene using HepaRG (AID 2283468)
- Applied conditions: mRNA level, 48 h; actives raise or lower the signal
Calls of active or inactive are those of the source. The calls were made as follows: active = hit-call score of the fitted dose curve at least 0.9, where 1 is the maximum; inactive = score below 0.9.
Labels: active, inactive

Compound | Group label
C#CCOS(=O)OC1CCCCC1Oc1ccc(C(C)(C)C)cc1 (configuration not stated) | inactive
COc1cnc(OC)n2nc(NS(=O)(=O)c3c(OCC(F)F)cccc3C(F)(F)F)nc12 | inactive
Cc1ccc(-c2c(Cl)nc(C#N)n2S(=O)(=O)N(C)C)cc1 | active
C=CC1(C)OC(=O)N(c2cc(Cl)cc(Cl)c2)C1=O (configuration not stated) | inactive
CCOc1cc(Oc2ccc(C(F)(F)F)cc2Cl)ccc1[N+](=O)[O-] | active
N#Cc1cc(Br)c(O)c(Br)c1 | active
CCCCOC(=O)c1ccccc1C(=O)OCCCC | inactive

---

- Read-out: glucuronosyltransferase (UGT1A1), UGT1A1 (gene 54658)
- Procedure summary: CLD_UGT1A1_48hr: CellzDirect (CLD) Gene Expression Assay for glucuronosyltransferase (UGT1A1) at 48 hours (AID 2283709);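 further: actives increase expression relative to DMSO so potency refers to induction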
Inconclusive results are not listed. Active and inactive are the calls of the source. Rule for the calls: active = hit-call score of the fitted dose curve at least 0.9, where 1 is the maximum; inconclusive = response in the unintended direction; inactive = score below 0.9.
Possible outcomes: YES = active, NO = inactive

Molecule | Group label
CC(C)C1(C)N=C(c2nc3ccccc3cc2C(=O)O)NC1=O (configuration not stated) | NO
COP(=S)(OC)Oc1nc(Cl)c(Cl)cc1Cl | NO
C=CCC1=C(C)C(OC(=O)C2C(C=C(C)C)C2(C)C)CC1=O (configuration not stated) | YES
Cc1c(F)c(F)c(COC(=O)C2C(/C=C(\Cl)C(F)(F)F)C2(C)C)c(F)c1F (configuration not stated) | NO
CC1=C(C(=O)Nc2ccccc2)SCCO1 | NO
CNC(=O)ON=CC(C)(C)SC | NO
OC(c1ccc(Cl)cc1)(c1cncnc1)c1ccccc1Cl (configuration not stated) | NO
COC(=O)C=C(C)OP(=O)(OC)OC | NO
CCCN(CCC)c1c([N+](=O)[O-])cc(S(N)(=O)=O)cc1[N+](=O)[O-] | NO
CCNc1nc(Cl)nc(NCC)n1 | NO
CON(C)C(=O)Nc1ccc(Cl)c(Cl)c1 | NO
CCCCC(CC)COC(=O)c1ccccc1C(=O)OCC(CC)CCCC (configuration not stated) | NO

---

- Tested on: rat CYP2C6, gene 293989
- Procedure summary: NVS_ADME_rCYP2C6: NovaScreen (NVS) CYP450-related Enzyme Activity (ADME) Assay for rat CYP2C6 (AID 2283120)
Active and inactive are the calls of the source. Rule for the calls: active = hit-call score of the fitted dose curve at least 0.9, where 1 is the maximum; inconclusive = response in the unintended direction; inactive = score below 0.9.
Metric name: AC50

Compound | Recorded value
CN(C)C(=S)SSC(=S)N(C)C | 1280 nM (active)
CO/C=C(/C(=O)OC)c1ccccc1Oc1cc(Oc2ccccc2C#N)ncn1 | 2120 nM (active)
CCOP(=S)(OCC)SCn1c(=O)oc2cc(Cl)ccc21 | 336 nM (active)
COc1ccc(C(c2ccc(OC)cc2)C(Cl)(Cl)Cl)cc1 | 9600 nM (active)
CS/C(C)=N/OC(=O)N(C)SN(C)C(=O)O/N=C(\C)SC | 3630 nM (active)
CCCC1COC(Cn2cncn2)(c2ccc(Cl)cc2Cl)O1 (configuration not stated) | 2450 nM (active)
CCCN(CCC)c1c([N+](=O)[O-])cc(S(N)(=O)=O)cc1[N+](=O)[O-] | 7630 nM (active)
